Molecular target: T1, human GPR7 (human, UniProt P48145 1-328)
T1 construct: Expressed in CHO cells; also called CHO-GPR7 (cells)
T1 sequence: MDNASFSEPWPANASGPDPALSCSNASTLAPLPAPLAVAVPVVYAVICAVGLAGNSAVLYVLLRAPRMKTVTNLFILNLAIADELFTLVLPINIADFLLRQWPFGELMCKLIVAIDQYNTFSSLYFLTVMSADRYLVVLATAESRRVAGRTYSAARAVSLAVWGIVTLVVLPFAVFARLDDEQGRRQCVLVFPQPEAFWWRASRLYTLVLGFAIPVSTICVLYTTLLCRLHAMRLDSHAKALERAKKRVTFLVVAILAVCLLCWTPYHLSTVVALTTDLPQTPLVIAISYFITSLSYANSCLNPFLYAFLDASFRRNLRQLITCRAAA
Assay: binding inhibition of iodine-labeled hGPR7L-23 on human GPR7-expressed CHO cell membrane fraction
Protocol: The peptides shown in TABLE 3 are those obtained by diluting the stock solution of […] or 10⁻³ M with the assay buffer in 10⁻⁵ M, 10⁻⁶ M, 10⁻⁷ M, 10⁻⁸ M, 10⁻⁹ M, 10⁻¹⁰ M and 10⁻¹¹ M. As NBS, hGPR7L-23 was prepared in a final concentration of 10⁻⁵ M. The sample solution and NSB prepared were dispensed on a polypropylene-made 96-well plate, the assay buffer was dispensed thereto to make the total volume 50 μl, and 25 μl of the iodine-labeled product dilution was added thereto. […]
pIC50: −log10 of the molar value. Non-standard residues stand in square brackets, D forms with d. No end group written: not given here. Trp(6-Br) = N[C@@H](Cc1c[nH]c2cc(Br)ccc12)C(=O)O; dTrp(6-Br) = N[C@H](Cc1c[nH]c2cc(Br)ccc12)C(=O)O
endpoint: pIC50

For orientation, consider the following solved cases.
* [Trp(6-Br)]YKPAAGHSSYSVGRAAGLLSGLRRSPYA [LTrp(6Br)1-human GPR7L(29)] | 9.49
* WYKPAAGSHHYSVGRAAGLLSSFHRFPST (also called rat GPR7 ligand B) [Trp1-rat GPR7L(29)] | 9.47
* [dTrp(6-Br)]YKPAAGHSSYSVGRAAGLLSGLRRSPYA [DTrp(6Br)1-human GPR7L(29)] | 7.89
* WYKPTAGQGYYSVGRAAGLLSGFHRSPYA (also called bovine GPR7 ligand B; non-brominated GPR7L) [Trp1-bovine GPR7L(29)] | 9.51
* WYKPAAGSHHYSVGRAAGLLSSFH (also called rat GPR7 ligand A) [Trp1-rat GPR7L(24)] | 9.52

1: [Trp(6-Br)]YKPTAGQGYYSVGRAAGLLSGFHRSPYA [LTrp(6Br)1-bovine GPR7L(29)]
2: [dTrp(6-Br)]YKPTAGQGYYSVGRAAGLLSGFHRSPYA [DTrp(6Br)1-bovine GPR7L(29)]
Q) Sort 1 and 2 by pIC50 descending and give the first. Let me know the label of the one you choose.
A) 1
